Measured values drawn from PubChem BioAssay AID1745844 for this set.

Test system: rodent lifetime carcinogenesis bioassay, tumor incidence TD50
test method notes: carcinogenic potency in animals, long-term in vivo studies, CPDB compilation (AID 1745844)
experimental conditions: rat; strain Wistar; males; in feed; site: kidney; lesion: several types; types named in the paper; dosed 126 weeks; study length 126 weeks
property label: TD50

Lookup result for "CC(=O)[O-].CC(=O)[O-].[OH-].[OH-].[OH-].[OH-].[Pb+2].[Pb+2].[Pb+2]" ; measured TD50: 107 mg/kg/day

###

System: rodent lifetime carcinogenesis bioassay, tumor incidence TD50
test method notes: carcinogenic potency in animals, long-term in vivo studies, CPDB compilation (AID 1745844)
experimental conditions: rat; strain Marshall; males; by gavage; site: testis; lesion: interstitial-cell tumor + interstitial-cell tumor, malignant; dosed 103 weeks; study length 104 weeks
property label: TD50 (mg/kg/day)
Field format: number, assumed mg/kg/day, no unit text.

Lookup result for "ClC=C(Cl)Cl" ; measured TD50: 153

###

Test system: rodent lifetime carcinogenesis bioassay, tumor incidence TD50
test method notes: carcinogenic potency in animals, long-term in vivo studies, CPDB compilation (AID 1745844)
experimental conditions: rat; strain Charles River CD1; males; in feed; site: kidney/pelvis; lesion: transitional-cell papilloma; dosed 104 weeks; study length 104 weeks
property label: TD50

Lookup result for "CCOP(=O)=O.CCOP(=O)=O.CCOP(=O)=O.[Al+3]" ; measured TD50: 31800 mg/kg/day

###

Test system: rodent lifetime carcinogenesis bioassay, tumor incidence TD50
test method notes: carcinogenic potency in animals, long-term in vivo studies, CPDB compilation (AID 1745844)
experimental conditions: rat; strain Fischer 344; males; in feed; site: thyroid gland; lesion: c-cell adenoma + c-cell carcinoma, bilateral + c-cell carcinoma; dosed 104 weeks; study length 105 weeks
property label: TD50 (mg/kg/day)
Field format: number, assumed mg/kg/day, no unit text.

Lookup result for "OCC(CO)(CBr)CBr" ; measured TD50: 675

###

System: rodent lifetime carcinogenesis bioassay, tumor incidence TD50
test method notes: carcinogenic potency in animals, long-term in vivo studies, CPDB compilation (AID 1745844)
experimental conditions: mouse; strain B6C3F1; males; in feed; site: all sites; lesion: hemangioma + hemangiosarcoma; dosed 90 weeks; study length 92 weeks
property label: TD50

Lookup result for "Clc1ccc2c(c1)Oc1ccc(Cl)cc1O2" ; measured TD50: 2750 mg/kg/day

###

Tested on: rodent lifetime carcinogenesis bioassay, tumor incidence TD50
test method notes: carcinogenic potency in animals, long-term in vivo studies, CPDB compilation (AID 1745844)
experimental conditions: rat; strain Fischer 344; females; in drinking water; site: mammary gland; lesion: adenoma; dosed 98 weeks; study length 104 weeks
property label: TD50

Lookup result for "Cc1ccc(S(=O)(=O)Oc2ccc(N=Nc3ccc(-c4ccc(N=Nc5c(O)ccc6cc(S(=O)(=O)O)cc(S(=O)(=O)O)c56)c(C)c4)cc3C)cc2)cc1" ; measured TD50: 67 mg/kg/day

###

Tested on: rodent lifetime carcinogenesis bioassay, tumor incidence TD50
test method notes: carcinogenic potency in animals, long-term in vivo studies, CPDB compilation (AID 1745844)
experimental conditions: hamster; strain Syrian Golden; females; by gavage; site: liver; lesion: hepatocellular carcinoma; dosed 35 weeks; study length 55 weeks
property label: TD50 (mg/kg/day)
Field format: number, assumed mg/kg/day, no unit text.

Lookup result for CC(=O)CNCC(O)C(O)N=O (stereo unspecified) ; measured TD50: 20.4

###

Tested on: rodent lifetime carcinogenesis bioassay, tumor incidence TD50
test method notes: carcinogenic potency in animals, long-term in vivo studies, CPDB compilation (AID 1745844)
experimental conditions: rat; strain Fischer 344; males; by gavage; site: lung; lesion: several types; types named in the paper; dosed 50 weeks; study length 104 weeks
property label: TD50

The measured TD50 that "CCCCCN(N=O)C(N)=O" showed for rodent lifetime carcinogenesis bioassay, tumor incidence TD50 is 0.546 mg/kg/day

###

Test system: rodent lifetime carcinogenesis bioassay, tumor incidence TD50
test method notes: carcinogenic potency in animals, long-term in vivo studies, CPDB compilation (AID 1745844)
experimental conditions: rat; strain Fischer 344; males; by gavage; site: forestomach; lesion: several types; types named in the paper; dosed 37 weeks; study length 55 weeks
property label: TD50

Lookup result for "NC(=O)N(CCO)N=O" ; measured TD50: 0.203 mg/kg/day

###

Test system: rodent lifetime carcinogenesis bioassay, tumor incidence TD50
test method notes: carcinogenic potency in animals, long-term in vivo studies, CPDB compilation (AID 1745844)
experimental conditions: mouse; strain CDF1; males; in feed; site: lung; lesion: several types; types named in the paper; dosed 96 weeks; study length 96 weeks
property label: TD50

Lookup result for "Cn1c(N)nc2c3cccnc3ccc21" ; measured TD50: 22.4 mg/kg/day

###

Tested on: rodent lifetime carcinogenesis bioassay, tumor incidence TD50
test method notes: carcinogenic potency in animals, long-term in vivo studies, CPDB compilation (AID 1745844)
experimental conditions: mouse; strain B6C3F1; males; inhaled; site: lung; lesion: alveolar/bronchiolar adenoma; dosed 26 weeks; study length 104 weeks
property label: TD50
Respond with the figure and its unit, in that order.

Lookup result for "C=CC=C" ; measured TD50: 17.3 mg/kg/day

###

System: rodent lifetime carcinogenesis bioassay, tumor incidence TD50
test method notes: carcinogenic potency in animals, long-term in vivo studies, CPDB compilation (AID 1745844)
experimental conditions: rat; strain Fischer 344; males; in feed; site: liver; lesion: hepatocellular adenoma + hepatoblastoma + hepatocellular carcinoma; dosed 104 weeks; study length 104 weeks
Friendly reminder: TD50 below 10 mg/kg/day is satisfied, at or above is not satisfied.

Answered cases to consult:
smiles record: Brc1cc(Br)c(-c2cc(Br)c(Br)cc2Br)cc1Br
assigned category: satisfied

smiles record: O=C1OC(c2ccc(O)cc2)(c2ccc(O)cc2)c2ccccc21
assigned category: not satisfied

smiles record: Cc1ccc(OP(=O)(Oc2ccc(C)cc2)Oc2ccc(C)cc2)cc1
assigned category: not satisfied

smiles record: Cc1ncc[nH]1
assigned category: not satisfied

smiles record: Cc1cc(O)c(C(C)(C)C)cc1Sc1cc(C(C)(C)C)c(O)cc1C
assigned category: not satisfied

Switching to the query record.
Query: Is TD50 of "Nc1nc(N)c2nc(-c3ccccc3)c(N)nc2n1" strictly below 10 mg/kg/day?
Reply: not satisfied

###

Test system: rodent lifetime carcinogenesis bioassay, tumor incidence TD50
test method notes: carcinogenic potency in animals, long-term in vivo studies, CPDB compilation (AID 1745844)
experimental conditions: rat; strain Wistar; males; inhaled; site: any site (literature study); lesion: several types; types named in the paper; dosed 52 weeks; study length 125 weeks
property label: TD50 (mg/kg/day)
Field format: number, assumed mg/kg/day, no unit text.

Lookup result for "C=CCl" ; measured TD50: 1130

###

Test system: rodent lifetime carcinogenesis bioassay, tumor incidence TD50
test method notes: carcinogenic potency in animals, long-term in vivo studies, CPDB compilation (AID 1745844)
experimental conditions: rat; strain Fischer 344; females; in drinking water; site: cervix uteri + uterus; lesion: papillary adenoma + adenoma; dosed 91 weeks; study length 93 weeks
property label: TD50 (mg/kg/day)
Field format: number, assumed mg/kg/day, no unit text.

Lookup result for "COc1cc(-c2ccc(N)c(OC)c2)ccc1N" ; measured TD50: 15.8

###

System: rodent lifetime carcinogenesis bioassay, tumor incidence TD50
test method notes: carcinogenic potency in animals, long-term in vivo studies, CPDB compilation (AID 1745844)
experimental conditions: rat; strain Wistar; males; in feed; site: any site (literature study); lesion: several types; types named in the paper; dosed 58 weeks; study length 89 weeks
Activity calls are given as the source filed them. No rule for the calls is given here.
property label: TD50

The measured TD50 that "CCSC[C@H](N)C(=O)O" showed for rodent lifetime carcinogenesis bioassay, tumor incidence TD50 is 3630 mg/kg/day (inactive)

###

Tested on: rodent lifetime carcinogenesis bioassay, tumor incidence TD50
test method notes: carcinogenic potency in animals, long-term in vivo studies, CPDB compilation (AID 1745844)
experimental conditions: rat; strain Osborne-Mendel; males; by gavage; site: kidney; lesion: tubular-cell adenoma + tubular-cell adenocarcinoma; dosed 78 weeks; study length 110 weeks
property label: TD50

The measured TD50 that "ClC(Cl)Cl" showed for rodent lifetime carcinogenesis bioassay, tumor incidence TD50 is 119 mg/kg/day

###

Tested on: rodent lifetime carcinogenesis bioassay, tumor incidence TD50
test method notes: carcinogenic potency in animals, long-term in vivo studies, CPDB compilation (AID 1745844)
experimental conditions: rat; strain Fischer 344; males; in drinking water; site: lung; lesion: one or several types; types not named; dosed 30 weeks; study length 104 weeks
// reported TD50 for each item listed

smiles record: CC(=O)CN(N=O)C(=O)NCCCl
TD50: 1.5 mg/kg/day

Lookup result for "CCN(N=O)C(=O)NCC(C)=O" ; measured TD50: 0.231 mg/kg/day

Lookup result for "CCN(N=O)C(=O)NCCO" ; measured TD50: 0.39 mg/kg/day

Lookup result for "CCNC(=O)N(CCO)N=O" ; measured TD50: 0.446 mg/kg/day
